system: HepG2 cells; experiment: HepG2 cytotoxicity assay; conditions: read-out: HepG2 cytotoxicity assay IC50; dose response confirmation
measured quantity: pIC50
For clarity, pIC50 is expressed as the negative log10 of concentration in mol/L.

Here's what some known entries look like.
| compound | measured quantity | result value |
| --- | --- | --- |
| CCOc1cccc(C(=O)Nc2nonc2-c2ccc(OC)c(OC)c2)c1 | pIC50 | 5.17 |
| Cc1[nH]c(C)c(-c2ccc(-c3cccc(OC(F)(F)F)c3)nc2)c(=O)c1Cl | pIC50 | 5.07 |
| Cc1[nH]c(C)c(-c2ccc(/C=C/c3ccccn3)cc2)c(=O)c1Cl | pIC50 | 4.00 |
| Cc1[nH]c(C)c(-c2ccc(-c3ccc(F)cc3)nc2)c(=O)c1Br | pIC50 | 4.48 |
| COc1ccc2nccc([C@@H](O)CN3CCC(NCc4ccc5c(c4)NC(=O)CO5)CC3)c2c1.Cl | pIC50 | 4.55 |

// sample `COc1ccc2nccc([C@@H](O)CN3CCC(NCCOc4cc(C(F)(F)F)ccc4F)CC3)c2c1.O=C(O)C(=O)O` , its pIC50 was 8.46

Given item `Br.CC1(C)NC(N)=NC(=N)N1OCCSc1ccc(Cl)c(Cl)c1` , the value recorded as its pIC50 is 9.00

// sample `Cc1cc(=O)c(-c2ccc(Oc3cccc(OC(F)(F)F)c3)cc2)c(C)[nH]1` , its pIC50 was 4.97

Kindly note the recorded pIC50 for `Nc1nc(N)c2c(ccc3c2ccn3Cc2cccc3ccccc23)n1` , which is 8.77

pIC50 for `Cc1ccc(Nc2nc(N/N=C/c3cccc(O)c3)nc(Nc3ccc([N+](=O)[O-])cc3)n2)cc1C` is 4.00

###

test system: HepG2 cells; test: HepG2 cytotoxicity assay; settings: read-out: HepG2 cytotoxicity assay IC50; dose response confirmation
measured quantity: log10 of IC50 (log10 of the value in µM)
Please interpret these as log10 of IC50 where IC50 is in µM.

| smi | log10 of IC50 |
| --- | --- |
| CC(=O)c1ccc2nc[nH]c(=O)c2c1 | 0.09 |
| CCc1cc2c3c(N)nc(N)nc3ccc2n1CC | -1.65 |
| CCCCN(C)CC#Cc1ccc(-c2ccc3[nH]c(C)c(Br)c(=O)c3c2)cn1 | 2.00 |

Form field log10 of IC50, entry `CC(=O)Oc1c(Cl)c(C)nc(C)c1-c1ccc(Oc2ccc(OC(F)(F)F)cc2)cc1` : 1.51

Note to self: log10 of IC50 recorded for `O=C(O)C(F)(F)F.O=c1[nH]ccc2nc(N[C@@H]3CCCNC3)nc(Nc3ccc(S(=O)(=O)N4CCOCC4)cc3)c12` was 1.66

###

Recorded Is compound selective in assay? Pf GC-ATP active? values for a group of compounds are listed next.
tested on: P. falciparum late stage (stages IV-V) gametocytes; assay: P. falciparum late stage gametocyte ATP depletion assay (Pf GC-ATP); conditions: 1: YES; 0: NO; >10-fold selectivity over cytotoxicity

| compound | result value |
| --- | --- |
| N=C(N)Nc1nc(-c2ccc(NC(=O)Nc3cccc(-c4csc(NC(=N)N)n4)c3)cc2)cs1 [TCMDC-139559] | 1 (1: YES) |

Sample Nc1ncc(-c2ccc3nccc(-c4ccncc4)c3c2)cc1S(=O)(=O)N1CCCCC1 [TCMDC-134265] ; Is compound selective in assay? Pf GC-ATP active? observed: 1 (1: YES)

The value of Is compound selective in assay? Pf GC-ATP active? measured for the compound COc1cc2c(c(Cl)c1OC)CCN(C(=O)C(F)(F)F)CC2c1ccccc1 (stereo not shown) [TCMDC-132071] turned out to be 1 (1: YES)

Briefly, Is compound selective in assay? Pf GC-ATP active? measured for Cc1ccc2nc(C)cc(N/N=C/c3ccc([N+](=O)[O-])cc3)c2c1 [TCMDC-142070] : 0 (0: NO)

Measured Is compound selective in assay? Pf GC-ATP active?, CN(C)CCN(Cc1ccccc1-c1ccc(CNCCc2ccccc2)cc1)C(=O)c1ccccc1.O=C(O)C(F)(F)F [TCMDC-140532] : 0 (0: NO)

Measured Is compound selective in assay? Pf GC-ATP active? of CC(C)CNCc1cccc(-c2cccc(CN(CCN(C)C)C(=O)Nc3ccccc3)c2)c1.O=C(O)C(F)(F)F [TCMDC-140592] : 1 (1: YES)

Note to self: Is compound selective in assay? Pf GC-ATP active? recorded for CCCCCCCN1CC[C@@H](CCCc2ccnc3ccc(OCCC4CCNCC4)cc23)[C@@H](CC)C1.Cl [TCMDC-139819] was 1 (1: YES)

###

tested on: P. berghei ookinete development; details: read-out: Pb ODA IC50; this manuscript
A collection of compounds and their measured pIC50
// pIC50: -log10(molar conc.)

Short answer for `CC(=O)Nc1ccc(Nc2c3ccccc3nc3ccccc23)cc1` : pIC50 was 6.22

Given item `CCOC(=O)c1c[nH]c2c(ccc3ccccc32)c1=O` , the value recorded as its pIC50 is 6.25

What the record says about Br.CC(CCON1C(N)=NC(N)=NC1(C)C)c1ccc(Cl)c(Cl)c1 (stereo not drawn) : pIC50 is 5.24

###

test system: HepG2 cells; assay: HepG2 cytotoxicity assay; conditions: HepG2 values of the three screens unified
measured quantity: Unified cytotox (µM)
Respond with the bare value in µM.

Reference set, count: 3
| smi | Unified cytotox / µM |
| --- | --- |
| CCCCCCCc1ccc(-c2c(C)[nH]c(C)c(Cl)c2=O)cn1 | 30.90 |
| COc1cccc(CC(=O)N2CCC(n3c(C)nc4ccc(C)cc43)CC2)c1 | 100.00 |
| CC(C)(C)CNCC(C)(C)c1nc(-c2ccc(Cl)c(O)c2)c(-c2ccncc2)[nH]1.Cl | 11.83 |

GET /values?item= `Cn1c(Sc2ncnc3sccc23)nc2ccccc21` &system= HepG2 cells returns Unified cytotox: 100.00

Fill in: HepG2 cells Unified cytotox for `Cc1[nH]c(C)c(-c2ccc(Oc3ccccc3)cc2)c(=O)c1Br` = 34.67

###

# Unified cytotox listing for each entry below
tested on: HepG2 cells; assay: HepG2 cytotoxicity assay; details: unified HepG2 cytotoxicity across the three screens
# number only, unit µM dropped from output

| molecule | tested target | Unified cytotox / µM |
| --- | --- | --- |
| COc1cccc(CCNC(C)Cc2ccc(OCCCCOc3ccccc3)cc2)c1 (centres unmarked) | HepG2 cells | 1.46 |
| Cc1ccc(Cn2nc(Cl)c(N3CCNCC3)cc2=O)cc1NC(=O)Nc1ccc(-c2ccccc2)cc1.O=C(O)C(F)(F)F | HepG2 cells | 4.79 |
| COC(=O)c1ccc(-c2ccc(C(=O)NCC3CCN(c4nc(N)c5cc(OC)c(OC)cc5n4)CC3)cc2)cc1 | HepG2 cells | 6.10 |
| Nc1ccc2[nH]cc(C3CCN(CCC4CCN(C(=O)/C=C/c5ccc(Cl)c(Cl)c5)CC4)CC3)c2n1 | HepG2 cells | 8.13 |
| Cc1cc2nc(N=C3NC4(c5ccccn5)NC(=Nc5nc6cc(C)c(C)cc6[nH]5)NC4(c4ccccn4)N3)[nH]c2cc1C.O=C(O)C(F)(F)F (centres unmarked) | HepG2 cells | 35.91 |
| Cc1ccc(Cn2nc(Cl)c(N3CCCNCC3)cc2=O)cc1NC(=O)Nc1ccc(-c2ccccc2)cc1.O=C(O)C(F)(F)F | HepG2 cells | 7.25 |
| CC(Cc1ccc(NC(=O)c2ccc(CNCCCCc3ccccc3)cc2)cc1)NCCc1cccc(Cl)c1.Cl (centres unmarked) | HepG2 cells | 1.97 |
| CN1CCCC1CCNc1ncc2c(-c3ccc(NC(=O)Nc4cc(C(F)(F)F)ccc4F)c(F)c3)nn(C)c2n1.O=C(O)C(F)(F)F (centres unmarked) | HepG2 cells | 4.62 |

Entry under test: `CC(C)(C)c1ccc(CNC(=O)/C=C/c2ccc(CNC3CCNCC3)cc2)cc1` . Its Unified cytotox was 9.47

Looking up CCN1CCC2(c3cccc(OC)c3)Cc3nc4ccccc4c(-c4ccccc4)c3CC2C1 (centres unmarked) , I found its Unified cytotox recorded as 33.25

Documented Unified cytotox of O=C(CCC1CCCC1)N(Cc1ccc(-c2ccc(CNCCc3ccccc3)cc2)cc1)C1CCCNC1.O=C(O)C(F)(F)F (centres unmarked) : 5.19

// sample `Cc1cc(N)c2cc(NC(=O)c3cc(C(F)(F)F)cc(C(F)(F)F)c3)ccc2n1.Cl` , its Unified cytotox was 2.60

Value of measured Unified cytotox for the entry `O=C(NCC1CCN(CCN2CCC(c3cn(CCO)c4ccccc34)CC2)CC1)c1ccc(-c2ccc(C(F)(F)F)cc2)cc1` : 2.69

molecule `O=C(O)C(F)(F)F.O=S(=O)(c1ccccc1)n1ccc2cc(Nc3ncnc4cc(C#C[C@H]5CCCN5)sc34)ccc21` , Unified cytotox observed: 5.50

Hello, the source for this data is paper PMC6753678, in case you need it.
